The reported numbers originate from patent US20240279318A1.

- MEASURED_ON: RCL1 peptide/HLA-A*02:01 complex (recombinant) (human, UniProt P16213 21-119 (Pongo pygmaeus entry))
- ASSAY_NOTES: SPR
VALUE_TYPE: binding result

INSERT INTO measurements (binder, result) VALUES
  ('AS170036 VL1VH1-VHG108E (scFv) scFv: QSALTQPRSVSGSPGQSVTISCAGTSSDVGSENYVSWYQQHPGKAPKLMIYQVNKRASGVPDRFSGSKSGNTASLTISGLQAEDEADYYCASYRSSDHNIVFGGGTKLTVLGGGGSGGGGSGGGGSEVQLVESGGGLVQPGGSLRLSCAASGFTFSSYAMSWVRQAPGKGLEWVSTINSGTGSPYYADSVKGRFTISRDNSKNTLYLQMNSLRAEDTAVYYCAKNFFDGSWFLEPPAMDYWGQGTLVTVSSHHHHHH', 'no binding'),
  ('AS170036 VL1VH1-VLH98T (scFv) scFv: QSALTQPRSVSGSPGQSVTISCAGTSSDVGSENYVSWYQQHPGKAPKLMIYQVNKRASGVPDRFSGSKSGNTASLTISGLQAEDEADYYCASYRSSDTNIVFGGGTKLTVLGGGGSGGGGSGGGGSEVQLVESGGGLVQPGGSLRLSCAASGFTFSSYAMSWVRQAPGKGLEWVSTINSGTGSPYYADSVKGRFTISRDNSKNTLYLQMNSLRAEDTAVYYCAKNFFDGSWFLGPPAMDYWGQGTLVTVSSHHHHHH', 'no binding');
